These data points were gathered from PubChem BioAssay AID434955.

assay: beta-lactam sensitization of Mtb H37Rv, H37Rv (AID 434955);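 note: growth measured after seven days incubation then overnight dye step; 0% = bacteria only wells and 100% = bacteria with antibiotic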; details: M. tuberculosis H37Rv growth with meropenem, percent inhibition; at 25 µM; stronger effect = higher value
Screen size: about 330,000 compounds; about 880 (0.27%) were called active. Inconclusive results (about 1%) are left out. The list is a sample of the results.
Please respond with reported inhibition for every item in the list.
Give bare numbers, in %.

Example cases with answers are listed next.
CC(C)(C)C1CCc2c(sc3nc(SCC(N)=O)nc(N)c23)C1 (stereo unspecified) :: 99.1
O=C(NCc1ccccc1)C(c1ccco1)N(C(=O)c1csnn1)c1ccccc1F (stereo unspecified) :: -3.66
Cc1cccc(NC(=O)C(C)N2C(=O)C3C4CC(C(Br)C4Br)C3C2=O)c1 (stereo unspecified) :: -22.1
Cn1nc(C(F)(F)F)cc1C(=O)O :: -2.73
O=C(NCCC1=CCCCC1)c1ccc(-n2cncn2)cc1 :: 3.02

Please state, for each entry, its recorded inhibition.
1. CCOc1ccc(C(O)Cn2c(=N)n(CCN3CCCCC3)c3ccccc32)cc1 (stereo unspecified)
2. O=C(NCCCCCCCCCNC(=O)C(F)(F)F)C(F)(F)F
3. CC(=O)C[C@@H](O)CC(=O)[C@H]1OC(=O)CCCCCCc2ccccc21
4. O=C(COC(=O)Cc1ccccc1F)NNC(=O)c1ccc(Cl)cc1
5. CCOC(=O)C1=C(CCc2ccccc2)NC(=O)NC1c1ccc2ccccc2c1 (stereo unspecified)

Response:
1: 8.31; 2: 3.21; 3: 1.26; 4: -6.06; 5: 30
